These data points were gathered from patent US20220324835A1.

target: Cbl-b (Homo sapiens, UniProt Q13191); assay: Cbl-b activity assay (Cbl-b inhibition assay), TR-FRET of Cbl-b interaction with UbcH5B-Ub; assay type: biochemical; conditions: assay buffer with 100 mM NaCl, 60 nM Src kinase; read-out: Cbl-b activity IC50
Sequence (Q13191 36-427): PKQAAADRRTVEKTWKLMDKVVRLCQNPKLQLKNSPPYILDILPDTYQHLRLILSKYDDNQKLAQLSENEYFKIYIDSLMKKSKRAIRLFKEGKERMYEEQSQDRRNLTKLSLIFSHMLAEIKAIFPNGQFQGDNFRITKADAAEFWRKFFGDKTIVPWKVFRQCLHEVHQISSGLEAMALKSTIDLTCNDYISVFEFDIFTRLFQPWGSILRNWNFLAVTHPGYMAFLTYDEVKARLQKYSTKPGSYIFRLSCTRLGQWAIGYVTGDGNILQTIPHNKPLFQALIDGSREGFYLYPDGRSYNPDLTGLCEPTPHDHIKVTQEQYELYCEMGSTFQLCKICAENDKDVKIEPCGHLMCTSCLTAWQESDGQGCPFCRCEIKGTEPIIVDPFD
MEASUREMENT_LABEL: IC50

# example entries with known answers
C[C@@H]1CN(C)CCN1c1cc2c(c(C(F)(F)F)c1)CN(c1cccc([C@@](C)(F)C(F)(F)c3nncn3C)c1)C2=O [Compound 443]: < 100 nM
Cn1cnnc1[C@H](F)C(C)(F)c1cccc(N2Cc3c(cccc3C(F)(F)F)C2=O)c1 (stereo in doubt) [Compound 479]: < 100 nM
C[C@H](Sc1nncn1C)c1cccc(NC(=O)c2cc(C(C)(C)O)c(Cl)cn2)c1 [Compound 55]: 301 to 1000 nM
C[C@H](c1cc2c(c(C(F)(F)F)c1)CN(c1cccc(C3(Cc4nncn4C)COC3)c1)C2=O)N1CCC(C)(F)CC1 [Example 553b]: < 100 nM
CC(C)c1cccc(C(=O)Nc2cccc([C@H](C)Sc3nncn3C)c2)n1 [Compound 33]: 100 to 300 nM
C[C@@H](Cc1n[nH]cc1CO)c1cccc(N2Cc3c(cccc3C(F)(F)F)C2=O)c1 [Compound 271a]: > 10000 nM
C[C@@H](Cc1nncn1C)c1cc(F)cc(N2Cc3c(cccc3C(F)(F)F)C2=O)c1 [Compound 281b]: 3000 to 10000 nM
C[C@H](Sc1nncn1C)c1cccc(NC(=O)c2nc(C(F)(F)F)cs2)c1 [Compound 74]: 301 to 1000 nM
CN1CC[C@@H](O)[C@H](Cc2cc3c(c(C(F)(F)F)c2)CN(c2cccc(C4(Cc5nncn5C)COC4)c2)C3=O)C1 (single isomer, unassigned) [Compound 533]: < 100 nM
Cc1cnn2c(C(=O)Nc3cccc(C4(Cc5nncn5C)COC4)c3)cc(C(F)(F)F)nc12 [Example 599]: 301 to 1000 nM

For each listed entry, give its IC50.
1. C[C@H](Sc1nncn1C)c1ccnc(NC(=O)c2cc(N3CC[C@H](O)C3)cc(C(F)(F)F)n2)c1 [Compound 126]
2. CCOC1CCCN(Cc2cc3c(c(C(F)(F)F)c2)CN(c2cccc(C4(Cc5nncn5C)COC4)c2)C3=O)C1 (centres unmarked) [Example 629]
3. CN(c1cc2c(c(C(F)(F)F)c1)CN(c1cccc([C@@](C)(F)C(F)(F)c3nncn3C)c1)C2=O)[C@H]1CNC[C@H]1F [Example 549]
4. Cn1cnnc1CC1(c2cccc(N3Cc4c(cc(CN5CCC(F)CC5)cc4C4CC4)C3=O)c2)COC1 [Example 552]

Result:
1: 1000 to 3000 nM; 2: < 100 nM; 3: 100 to 300 nM; 4: < 100 nM
